Origin of the recorded values: the RNAGym collection of RNA variant scans (doi:10.7554/elife.80360)

B1: HDV Ribozyme (parent)
chain: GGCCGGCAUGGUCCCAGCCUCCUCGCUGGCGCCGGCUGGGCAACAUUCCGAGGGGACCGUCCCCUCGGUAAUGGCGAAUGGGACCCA

variants of: B1; assay: self-cleavage, relative activity (ratio to wild type); higher = more cleavage; co-transcriptional
readout.name: self-cleavage
Write the value as a bare number.

Worked examples follow.
[
  {
    "mutant": "G39A G50U",
    "self-cleavage": 0.441
  },
  {
    "mutant": "C30U G55A",
    "self-cleavage": 0.691
  },
  {
    "mutant": "C57G G67A",
    "self-cleavage": 0.909
  },
  {
    "mutant": "C64A A71G",
    "self-cleavage": 0.529
  },
  {
    "mutant": "C48A C66U",
    "self-cleavage": 0.988
  },
  {
    "mutant": "U60G G73U",
    "self-cleavage": 0.298
  }
]

[Q] Value lookup for self-cleavage; key = C4U A51U
[A] 0.85

[Q] Value lookup for self-cleavage; key = A8G C22U
[A] 0.361

[Q] Value lookup for self-cleavage; key = C4U A45G
[A] 0.862

[Q] Value lookup for self-cleavage; key = G28A G80C
[A] 0.0396

[Q] Value lookup for self-cleavage; key = C26A G39U
[A] 0.935
